# assay notes: AUC (0 to infinity) in rat at 10 mg/kg, po
# Format: ADME, organism-based
# Set-up: time infinity, dose 10 mg/kg, route oral
# experimental conditions: plasma
measured quantity: AUC(0-inf) (ng·h/mL)

A. O=C([C@H]1c2ccccc2CN1C(=O)c1cc(Cl)c(O)cc1O)N1CCCC1
B. CCNC(=O)[C@H]1c2ccccc2CN1C(=O)c1cc(Cl)c(O)cc1O
Higher AUC(0-inf) between A and B ? State your choice using its label.
A
(A: 2900 ng·h/mL, B: 1300 ng·h/mL)
